assay-comment: BSK_CASM3C_SRB: Viability Assessment in the BioMAP Diversity Plus: CASM3C Assay (AID 2283050);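 further: total protein by SRB staining as cytotoxicity measure in parallel cultures; cells exposed to compound for 24 h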
experimental-context: primary human coronary artery smooth muscle cells
Calls of active or inactive are those of the source. How the source made its calls: active means hit-call score of the fitted dose curve at least 0.9, where 1 is the maximum; inactive means score below 0.9.
value-type: outcome

CC(C)CCCCCCOC(=O)c1ccccc1C(=O)OCCCCCCC(C)C	inactive
NC(=S)Nc1ccccc1	inactive
O=C(O)CCC(F)(C(F)(F)F)C(F)(F)F	inactive

====

assay-comment: ATG_AP_2_CIS: Attagene CIS-FACTORIAL HepG2 Assay for human Activator Protein 2 (AP-2) (AID 2282932)
experimental-context: HepG2 AP-2 cis-reporter, Attagene transcription factor profiling; actives raise or lower the signal
Active and inactive are the calls of the source. How the source made its calls: active means hit-call score of the fitted dose curve at least 0.9, where 1 is the maximum; inactive means score below 0.9.
Form entry, call: pick from active, inactive

Per the assay record, what outcome was assigned to `ClCC(Cl)CCl` ?
inactive

Per the assay record, what outcome was assigned to CC1(C)CCC(Cc2ccc(Cl)cc2)C1(O)Cn1cncn1 (configuration not stated) ?
inactive

Per the assay record, what outcome was assigned to `COc1cc(-c2ccc(N)c(OC)c2)ccc1N` ?
inactive

Per the assay record, what outcome was assigned to `O=C(O)Cc1ccccc1` ?
inactive

Per the assay record, what outcome was assigned to `ClC1=C(Cl)[C@]2(Cl)[C@@H]3[C@@H](Cl)[C@@H](Cl)C[C@@H]3[C@@]1(Cl)C2(Cl)Cl` ?
inactive

Per the assay record, what outcome was assigned to `COc1cc(OC)nc(NC(=O)NS(=O)(=O)c2ncccc2C(=O)N(C)C)n1` ?
inactive

Per the assay record, what outcome was assigned to `Nc1cccc(Cl)c1` ?
inactive

Per the assay record, what outcome was assigned to `COP(=S)(OC)Oc1ccc(S(=O)(=O)N(C)C)cc1` ?
inactive

Per the assay record, what outcome was assigned to `NC(=O)O` ?
inactive

Per the assay record, what outcome was assigned to `O=C(CCl)CCl` ?
active

Per the assay record, what outcome was assigned to `[O-][Cl+2]([O-])O` ?
inactive

Per the assay record, what outcome was assigned to `CCC[CH2][Sn]([CH2]CCC)([CH2]CCC)[O]C(=O)c1ccccc1` ?
inactive

Per the assay record, what outcome was assigned to `CCc1ccccc1C` ?
inactive

Per the assay record, what outcome was assigned to `CCOC(=O)Nc1cccc(OC(=O)Nc2ccccc2)c1` ?
inactive

Per the assay record, what outcome was assigned to `O=C(Cl)c1ccc(Cl)cc1` ?
inactive

Per the assay record, what outcome was assigned to `CC(=[OH+])/C=C(/C)[O-].CC(=[OH+])/C=C(/C)[O-].CC(=[OH+])/C=C(/C)[O-].[Fe]` ?
inactive

Per the assay record, what outcome was assigned to `O=P(O)(O)CN(CP(=O)(O)O)CP(=O)(O)O` ?
inactive

Per the assay record, what outcome was assigned to `COC[C@H](C)N(C(=O)CCl)c1c(C)csc1C` ?
inactive

Per the assay record, what outcome was assigned to `CC(=O)[O][Hg][c]1ccccc1` ?
inactive

Per the assay record, what outcome was assigned to `Oc1ccc(-c2ccccc2)cc1` ?
active

Per the assay record, what outcome was assigned to `O=C1CCCN1` ?
inactive

Per the assay record, what outcome was assigned to `CC(=O)C=C(C)C` ?
inactive

====

assay-comment: ATG_DR4_LXR_CIS: Attagene CIS-FACTORIAL HepG2 Assay for human Liver X Receptor (LXR), DR4 submotif (AID 2282929)
experimental-context: HepG2 Attagene DR4 cis-reporter, mRNA transcription; actives raise or lower the signal
The source made the active and inactive calls. The calls were made as follows: active = hit-call score of the fitted dose curve at least 0.9, where 1 is the maximum; inactive = score below 0.9.
Form entry, call: pick from Y for active, N for inactive

Per the assay record, what outcome was assigned to `CC(C)CCCCCCOC(=O)c1ccccc1C(=O)OCCCCCCC(C)C` ?
N

Per the assay record, what outcome was assigned to Clc1ccc(COC(Cn2ccnc2)c2ccc(Cl)cc2Cl)cc1 (stereo unspecified) ?
Y

Per the assay record, what outcome was assigned to `CC(=O)[O][Hg][c]1ccccc1` ?
N

Per the assay record, what outcome was assigned to `COc1ccccc1OC` ?
N

Per the assay record, what outcome was assigned to `NNC(=S)NN` ?
N

Per the assay record, what outcome was assigned to `COP(=O)(OC)O/C(=C\Cl)c1cc(Cl)c(Cl)cc1Cl` ?
Y
